Data credit: PubChem BioAssay (NCI)

assay: NCI Yeast Anticancer Drug Screen. Data for the cln2 rad14 strain (AID 165);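 also: 0% = growth equal to vehicle treated cultures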; details: S. cerevisiae cln2 rad14 strain, at 50.0 µM (retest, dose inferred, filed as 5.0), hits give high values
The panel holds about 79,000 compounds, 15% with a hit somewhere; the sample as a whole holds those more often.
Each entry belongs to exactly one class, chosen by where its growth inhibition falls: b0 (below 10%), b1 (10% to below 80%), b2 (80% or more)

Below, 5 molecules whose answers are already recorded.
# MOLECULE, GROUP LABEL
data = [
    ("CC1C(c2ccccc2)SC(=N)N1C (stereo not drawn)", "b1"),
    ("COc1cccc(C(NC2=NCCC=N2)c2cc3c(cc2O)OCO3)c1O (stereo not drawn)", "b1"),
    ("NC(N)=NC(N)=Nc1ccccc1 (tested in a mixture with another compound)", "b0"),
    ("CNC(=O)OCc1c2ccncc2c(C)c2c1[nH]c1ccccc12", "b2"),
    ("O=C(Nc1ccc(Cl)cc1)c1cc2cc(N=Nc3ccccc3Cl)ccc2oc1=O", "b1"),
]

Input line: In plain terms, what class is COc1ccc2c(c1)CCCC(Br)C2=O (stereo not drawn) ?
Output line: b1

Input line: Now consider N#CCCC1C(C#N)C2(Cl)CC1(Cl)C(Cl)=C2Cl (stereo not drawn) and answer again.
Output line: b1

Input line: Now consider C/C(=N\Sc1ccccc1)c1ccccc1O and answer again.
Output line: b0

Input line: Now consider CC(=O)Oc1ccc2c(c1)Cc1cc(N3C(=O)C=CC3=O)ccc1-2 and answer again.
Output line: b2

Input line: Now consider O=C1c2ccccc2C(=O)c2c(O)c(NCCNCCO)cc(O)c21 and answer again.
Output line: b1

Input line: Now consider O=C(O)C(=Cc1ccc(-c2ccccc2)cc1)C(=O)O and answer again.
Output line: b1

Input line: Now consider CC(C)C(c1ccccc1)c1ccccc1 and answer again.
Output line: b0

Input line: Now consider O=[N+]([O-])/C=C/c1cc2ccc3ccccc3c2[nH]1 and answer again.
Output line: b2
